Sourced from the M2OR odorant receptor database

Target System: OR51B4 (Homo sapiens) (UniProt Q9Y5P0)
Sequence (whole entry): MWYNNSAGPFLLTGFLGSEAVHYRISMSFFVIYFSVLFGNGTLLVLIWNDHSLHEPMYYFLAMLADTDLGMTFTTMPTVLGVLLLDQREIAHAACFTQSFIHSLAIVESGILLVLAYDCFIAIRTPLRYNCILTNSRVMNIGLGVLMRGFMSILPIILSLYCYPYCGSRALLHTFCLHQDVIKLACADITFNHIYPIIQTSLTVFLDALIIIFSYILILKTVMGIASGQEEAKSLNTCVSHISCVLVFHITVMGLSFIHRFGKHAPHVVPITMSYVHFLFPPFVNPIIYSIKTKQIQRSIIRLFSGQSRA
Conditions: stereoisomer not certain
Measurement Name: odorant receptor agonist call

Worked cases, odorant receptor agonist call given:
1) CCCCC(S)C(C)CO (configuration not stated)
inactive
2) CCCCCC1CCCC(=O)O1 (configuration not stated)
inactive
3) CC1=C(O)C(=O)C(C)O1 (configuration not stated)
inactive
4) CC(CO)CS (configuration not stated)
inactive

Give the measured odorant receptor agonist call of CCCCCCC=CCCC=O . inactive

Repeat for the following compound: Cc1cnc(C)c(C)n1 inactive

Note, next up: CCCCCC(=O)C(C)C(C)=O (configuration not stated) inactive

---

Target System: OR8B4 (Homo sapiens) (UniProt Q96RC9)
Sequence (Q96RC9 whole entry): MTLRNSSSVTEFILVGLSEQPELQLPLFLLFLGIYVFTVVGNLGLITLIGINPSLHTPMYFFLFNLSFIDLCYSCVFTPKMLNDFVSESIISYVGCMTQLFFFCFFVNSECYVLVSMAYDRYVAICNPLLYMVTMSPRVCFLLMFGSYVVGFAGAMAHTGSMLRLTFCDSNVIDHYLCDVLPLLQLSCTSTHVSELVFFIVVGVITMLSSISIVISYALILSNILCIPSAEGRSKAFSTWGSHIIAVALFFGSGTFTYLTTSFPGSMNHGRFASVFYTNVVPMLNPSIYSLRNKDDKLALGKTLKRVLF
Conditions: stereoisomer not certain
Measurement Name: odorant receptor agonist call

Use the examples below as a reference point.
1. CCCCC(S)C(C)CO (centres undefined)
inactive
2. CCCCCC(=O)C(C)C(C)=O (centres undefined)
inactive
3. CC(CO)CS (centres undefined)
inactive
4. CCC1OC(=O)C(O)=C1C (centres undefined)
inactive
5. CCCCCCC=CCCC=O
inactive
6. CCC(S)C(C)CO (centres undefined)
inactive
7. CC1=NC(C)C(C)S1 (centres undefined)
inactive
8. CCCC(S)CCOC(C)=O (centres undefined)
inactive

Kindly review the next compound as well.
# input compound: CCC1OC(C)=C(O)C1=O (centres undefined) ; wanted: its odorant receptor agonist call inactive

---

Target System: UniProt Q8VG28
Sequence (Q8VG28 as listed by the source): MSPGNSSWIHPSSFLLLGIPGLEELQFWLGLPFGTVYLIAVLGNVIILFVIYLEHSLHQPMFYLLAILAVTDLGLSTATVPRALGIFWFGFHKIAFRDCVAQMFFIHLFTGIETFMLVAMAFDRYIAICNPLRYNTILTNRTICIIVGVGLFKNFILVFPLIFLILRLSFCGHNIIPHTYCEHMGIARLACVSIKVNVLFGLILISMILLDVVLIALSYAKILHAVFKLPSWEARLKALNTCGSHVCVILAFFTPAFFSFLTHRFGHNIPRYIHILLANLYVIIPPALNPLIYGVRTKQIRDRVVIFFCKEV
Conditions: stereoisomer not certain
Can you answer with just one of these options? active, inactive

Called result for CCCCC(=O)O inactive

Then what about the molecule CCCCCCCCCO ? inactive

Request: CCCCCCO inactive

Now the molecule O=C(O)CCCCCC(=O)O inactive

Let us now turn to CCCC(C)=O inactive

Again, but for CCCCC=O inactive

Please give the result for CCCCCCCCCC(=O)[O-].[H+] too. active

Further, for O=C(O)CCCBr ? inactive

O=C(O)CCCCCBr ? inactive

Same question for CCCCCCCO please. inactive

Now the molecule CCCCCCC(=O)[O-].[H+] inactive

---

Test system: O56B1 C106R L214F
Conditions: stereoisomer not certain
Measurement Name: odorant receptor agonist call

1. CCC1OC(C)=C(O)C1=O (centres undefined)
inactive
2. CCCCCCC=CCCC=O
inactive
3. Cc1cnc(C)c(C)n1
inactive
4. CC1=C(O)C(=O)C(C)O1 (centres undefined)
inactive

---

Target System: OR2A12 (Homo sapiens) (UniProt Q8NGT7)
Sequence (Q8NGT7 whole entry): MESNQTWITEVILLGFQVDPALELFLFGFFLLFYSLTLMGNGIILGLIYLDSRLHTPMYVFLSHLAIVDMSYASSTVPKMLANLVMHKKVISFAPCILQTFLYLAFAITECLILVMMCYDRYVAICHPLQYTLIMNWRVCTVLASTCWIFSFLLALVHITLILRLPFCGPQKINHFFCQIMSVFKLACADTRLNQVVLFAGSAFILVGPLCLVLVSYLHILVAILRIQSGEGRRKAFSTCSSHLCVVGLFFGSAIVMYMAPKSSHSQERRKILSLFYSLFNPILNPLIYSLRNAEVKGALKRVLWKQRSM
Conditions: stereoisomer not certain
Measurement Name: odorant receptor agonist call

The cases that follow already have their odorant receptor agonist call on record.
1) CC1=NC(C)C(C)S1 (stereo unspecified)
inactive
2) CC1CCCCCCCCCCCCC(=O)C1 (stereo unspecified)
inactive
3) CCCC(S)CCOC(C)=O (stereo unspecified)
inactive
4) CC(=O)c1c(C)c([N+](=O)[O-])c(C(C)(C)C)c([N+](=O)[O-])c1C
inactive
5) Cc1cnc(C)c(C)n1
inactive
6) CCCCCCC=CCCC=O
inactive
7) CC(CO)CS (stereo unspecified)
inactive
8) CCCCCC(S)C(C)CO (stereo unspecified)
inactive
9) CCC1OC(=O)C(O)=C1C (stereo unspecified)
inactive
10) CC1=C(O)C(=O)C(C)O1 (stereo unspecified)
inactive

Please find the next compound below.
Could you tell me which odorant receptor agonist call is on file for CCCCC(S)C(C)CO (stereo unspecified) ? inactive
